Target: human M2 receptor (Homo sapiens (Human))
Sequence (P08172 whole entry): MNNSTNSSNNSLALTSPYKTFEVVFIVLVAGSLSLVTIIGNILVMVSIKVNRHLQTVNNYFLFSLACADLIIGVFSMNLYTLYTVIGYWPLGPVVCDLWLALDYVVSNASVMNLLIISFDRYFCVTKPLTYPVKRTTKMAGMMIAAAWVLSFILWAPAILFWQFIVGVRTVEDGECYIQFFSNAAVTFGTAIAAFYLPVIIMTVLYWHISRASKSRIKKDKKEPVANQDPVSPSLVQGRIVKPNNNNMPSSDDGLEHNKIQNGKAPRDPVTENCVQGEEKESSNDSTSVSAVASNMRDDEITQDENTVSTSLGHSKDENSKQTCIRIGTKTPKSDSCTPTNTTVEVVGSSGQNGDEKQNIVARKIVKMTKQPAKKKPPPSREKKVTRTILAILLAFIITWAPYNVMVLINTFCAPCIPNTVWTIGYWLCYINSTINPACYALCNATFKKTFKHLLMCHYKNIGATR
Experiment: Radioligand (tritiated N-methylscopolamine) binding assay, M2
Conditions: CHO cell membranes expressing human M2; 1.5 nM tritiated N-methylscopolamine; 90 min, 37° C.; read-out: Ki against M2 receptor (Table 21, M2)
Each item that follows carries a reported Ki.
endpointName: Ki

{"columns": ["compound", "value"],
 "data": [
  ["N#Cc1cc(OC(F)(F)F)cc(N2CCC(C(=O)NCCC3CCN(Cc4ccccc4)CC3)CC2)c1", "10 to 100 nM"],
  ["O=C(NCCC1CCN(Cc2ccccc2)CC1)C1CCN(c2cccc(OC(F)(F)F)c2)CC1", "100 to 1000 nM"],
  ["C[C@@H]1CN(c2cnc(C(F)(F)F)nc2)CCN1C(=O)NCCC1CCN(Cc2ccccc2)CC1", "10 to 100 nM"],
  ["C[C@@H]1CN(c2ncc(C(F)(F)F)cn2)C[C@H](C)N1C(=O)NCCC1CCN(Cc2ccccc2)CC1", "100 to 1000 nM"],
  ["O=C(NCCC1CCN(Cc2ccccc2)CC1)c1ccc(-c2ccc(OC(F)(F)F)cc2)cc1F", "10 to 100 nM"],
  ["C[C@@H]1CN(c2nc(Cl)cc(C#N)n2)C[C@H](C)N1C(=O)NCCC1CCN(Cc2ccccc2)CC1", "10 to 100 nM"],
  ["O=C(NCCC1CCN(Cc2ccccc2)CC1)C1CCN(c2ccc3c(c2)OC(F)(F)O3)CC1", "10 to 100 nM"],
  ["C[C@@H]1CN(c2ccc(F)c(F)c2)CCN1C(=O)NCCC1CCN(Cc2ccccc2)CC1", "100 to 1000 nM"],
  ["COc1ccc(N2C[C@@H](C)N(C(=O)NCCC3CCN(Cc4ccccc4)CC3)[C@@H](C)C2)cc1C#N", "10 to 100 nM"],
  ["Cc1c(C(=O)NCCC2(O)CCN(Cc3ccccc3)CC2)cnc2cc(-c3cccc(C(F)(F)F)c3)nn12", "100 to 1000 nM"],
  ["Cc1nc(N2CCN(C(=O)NCCC3CCN(Cc4ccccc4)CC3)[C@H](C)C2)ccc1F", "100 to 1000 nM"],
  ["C[C@@H]1CN(c2ncc(Cl)cn2)CCN1C(=O)NCCC1CCN(Cc2ccccc2)CC1", "10 to 100 nM"],
  ["N#Cc1ccc(N2CCC(C(=O)NCCC3CCN(Cc4ccccc4)CC3)CC2)cc1OC(F)(F)F", "100 to 1000 nM"],
  ["Cc1c(C(=O)NC[C@H](O)C2CCN(Cc3ccccc3)CC2)cnc2cc(-c3cccc(C(F)(F)F)c3)nn12", "100 to 1000 nM"],
  ["O=C(NCC(O)C1CCN(Cc2ccccc2)CC1)C1CCN(c2ccc(OC(F)(F)F)cc2)CC1 (centres unmarked) [9-8]", "100 to 1000 nM"],
  ["C[C@@H]1CN(c2cc(F)c(F)c(F)c2)CCN1C(=O)NCCC1CCN(Cc2ccccc2)CC1", "10 to 100 nM"],
  ["C[C@@H]1CN(c2ncc(Cl)cn2)C[C@H](C)N1C(=O)NCCC1CCN(Cc2ccccc2)CC1", "10 to 100 nM"],
  ["C[C@@H]1CN(c2ccc(F)c(C#N)c2)CCN1C(=O)NC[C@@H](O)C1CCN(Cc2ccccc2)CC1", "> 1000 nM"],
  ["C[C@@H]1CN(c2cnc(C(F)(F)F)nc2)C[C@@H](C)N1C(=O)NCCC1CCN(Cc2ccccc2)CC1", "10 to 100 nM"],
  ["C[C@@H]1CN(c2cc(F)c(F)c(F)c2)CCN1C(=O)NCCC1CCN(Cc2ccccc2)CC1CO (some centres unmarked)", "100 to 1000 nM"],
  ["Cc1c(C(=O)NCCC2CCN(Cc3ccccc3)CC2)cnc2cc(-c3ccc(F)cc3)nn12", "100 to 1000 nM"],
  ["C[C@@H]1CN(c2ccc(OC(F)(F)F)c(C#N)c2)CCN1C(=O)NCC[C@H]1CCN(Cc2ccccc2)C1", "100 to 1000 nM"],
  ["Cc1cc(N2CCC(C(=O)NCCC3CCN(Cc4ccccc4)CC3)CC2)ccc1OC(F)(F)F", "10 to 100 nM"],
  ["Cc1c(C(=O)NCCC2CCN(Cc3ccccc3)CC2)cnc2cc(-c3cccc(C(F)(F)F)c3)nn12", "100 to 1000 nM"],
  ["C[C@@H]1CN(c2cc(F)c(F)c(Cl)c2)CCN1C(=O)NCCC1CCN(Cc2ccccc2)CC1", "10 to 100 nM"],
  ["O=C(NCCC1CCN(Cc2ccccc2)CC1)N1CCN(c2ccc(C(F)(F)F)cn2)CC1", "10 to 100 nM"],
  ["C[C@@H]1CN(c2ncc(C(F)(F)F)c(N)n2)C[C@H](C)N1C(=O)NCCC1CCN(Cc2ccccc2)CC1", "100 to 1000 nM"],
  ["C[C@@H]1CN(c2nccc(C#N)n2)C[C@H](C)N1C(=O)NCCC1CCN(Cc2ccccc2)CC1", "100 to 1000 nM"],
  ["O=C(NCCC1(O)CCN(Cc2ccccc2)CC1)C1CCN(c2ccc(OC(F)(F)F)c(F)c2)CC1 [9-72]", "100 to 1000 nM"],
  ["C[C@@H]1CN(c2ccc(C(F)(F)F)cn2)CCN1C(=O)NCCC1CCN(Cc2ccccc2)CC1", "10 to 100 nM"],
  ["C[C@@H]1CN(c2ccc(C#N)cc2F)C[C@H](C)N1C(=O)NCCC1CCN(Cc2ccccc2)CC1", "100 to 1000 nM"],
  ["C[C@@H]1CN(c2ncc(C#N)c(N)n2)CCN1C(=O)NCCC1CCN(Cc2ccccc2)CC1", "100 to 1000 nM"]
]}
